I'd be grateful if you could share measured Efficacy against Eimeria acervulina for these entries.
Test system: Eimeria acervulina
Test: Cage experiment on coccidiosis/chicks, E. acervulina readout; note: key: 2=full action; 1=slight action; 0=inactive; D=death
Format: in vivo
Details: Table 4, dose 10 ppm; first symbol of cell
Numbers only.

The cases that follow already have their Efficacy against Eimeria acervulina on record.
CCOC(=O)N(Cn1c(C(F)(F)F)nc2c(Cl)cc3c(c21)OC(F)(F)C(F)(F)O3)C(C)C [Ex. 7] ... 2
COC(=O)N(Cn1c(C(F)(F)F)nc2c(Cl)cc3c(c21)OC(F)(F)C(F)(F)O3)c1ccccc1C [Ex. 8] ... 2
COC(=O)N(C)Cn1c(C(F)(F)F)nc2c(Cl)cc3c(c21)OC(F)(F)C(F)(F)O3 [Ex. 3] ... 2
CCN(Cn1c(C(F)(F)F)nc2c(Cl)cc3c(c21)OC(F)(F)C(F)(F)O3)C(=O)OC [Ex. 4] ... 1
CCOC(=O)N(Cn1c(C(F)(F)F)nc2c(Cl)cc3c(c21)OC(F)(F)C(F)(F)O3)C1CCCCC1 [Ex. 9] ... 2

Items follow; give Efficacy against Eimeria acervulina for each.
1. CCOC(=O)N(Cn1c(C(F)(F)F)nc2c(Br)cc3c(c21)OC(F)(F)C(F)(F)O3)C(C)C [Ex. 6]
2. CCN(Cn1c(C(F)(F)F)nc2c(Br)cc3c(c21)OC(F)(F)C(F)(F)O3)C(=O)OC [Ex. 1]
3. CCCCN(Cn1c(C(F)(F)F)nc2c(Br)cc3c(c21)OC(F)(F)C(F)(F)O3)C(=O)OCC [Ex. 5]

[2, 2, 1]
